Where do the numbers come from? From patent US6355799B1.

System: upland rice (Oryza sp., var. Tebonnet, RICE)
Assay: Pre-emerge test, crop safety
Assay type: in vivo
Settings: 63 g ai/ha; pre-emerge; rated 14 days after application; 0 = no damage, 100 = complete death
Please enter Met where Pre-emerge crop damage RICE (phytotoxicity rating, scale 0-100) is greater than or equal to 20, and Not met where it is lower.

Q) Given `Cn1c(C(F)(F)F)cc(=O)n(-c2c(F)cc(Cl)c(OCC#N)c2N)c1=O` , state whether its Pre-emerge crop damage RICE (phytotoxicity rating, scale 0-100) is at least 20.
A) Met

Q) Given CCOC(=O)C(C)Nc1cc(OC(F)F)cc(F)c1-n1c(=O)cc(C(F)(F)F)n(C)c1=O (stereo not shown) , state whether its Pre-emerge crop damage RICE (phytotoxicity rating, scale 0-100) is at least 20.
A) Met

Q) Given `Cc1c(Cl)cc(F)c(-n2c(=O)cc(C(F)(F)F)n(C)c2=O)c1N` , state whether its Pre-emerge crop damage RICE (phytotoxicity rating, scale 0-100) is at least 20.
A) Met

Q) Given `COc1c(Cl)cc(F)c(-n2c(=O)c(NC(=O)C(F)(F)F)c(C(F)(F)F)n(C)c2=O)c1NC(=O)C(F)(F)F` , state whether its Pre-emerge crop damage RICE (phytotoxicity rating, scale 0-100) is at least 20.
A) Not met

Q) Given `COc1c(Cl)cc(F)c(-n2c(=O)cc(C(F)(F)F)n(C)c2=O)c1NC(C)=O` , state whether its Pre-emerge crop damage RICE (phytotoxicity rating, scale 0-100) is at least 20.
A) Met

Q) Given `COc1c(Cl)cc(F)c(-n2c(=O)c(N)c(C(F)(F)F)n(C)c2=O)c1N` , state whether its Pre-emerge crop damage RICE (phytotoxicity rating, scale 0-100) is at least 20.
A) Not met
